system: M14 melanoma; assay: NCI tumour cell line growth inhibition, 384-well format
TGI listing for selected molecules.
Report as a plain number; the unit µM is understood.

Item under review: `CN(CC(=O)N(Cc1ccc(C2CCCCC2)cc1)c1ccc(C(=O)O)c(O)c1)S(=O)(=O)c1c(F)c(F)c(F)c(F)c1F` . Reported TGI? 3.55

Try this molecule too: `Cc1c(COc2cc(OCc3cccc(C#N)c3)c(CN3C[C@H](O)C[C@@H]3C(=O)O)cc2Cl)cccc1-c1ccc2c(c1)OCCO2` 11.6

Another molecule to check: `CCNC(=O)c1cc2c(-c3cc(C(C)(C)O)ccc3Oc3c(C)cc(F)cc3C)cn(C)c(=O)c2[nH]1` 16.9

Also, `O=C(Nc1cccc(Br)c1)Oc1ccc(Cl)c2cccnc12` please. 6.58

###

test system: OVCAR-3 ovarian; test: NCI tumour cell line growth inhibition, 384-well format
Recorded GI50 values for a group of compounds are listed next.

These recorded examples may help you get a feel for the data.
INSERT INTO assay_data (compound_smiles, target_desc, result) VALUES
  ('CCNC(=O)c1cc2c(-c3cc(C(C)(C)O)ccc3Oc3c(C)cc(F)cc3C)cn(C)c(=O)c2[nH]1', 'OVCAR-3 ovarian', '602 nM'),
  ('CC(=O)O[C@]1(C(C)=O)CC[C@H]2[C@@H]3C=C(C)C4=CC(=O)CC[C@]4(C)[C@H]3CC[C@@]21C', 'OVCAR-3 ovarian', '> 100000 nM'),
  ('Cc1c(COc2cc(OCc3cccc(C#N)c3)c(CN3C[C@H](O)C[C@@H]3C(=O)O)cc2Cl)cccc1-c1ccc2c(c1)OCCO2', 'OVCAR-3 ovarian', '2370 nM');

// switching to the query compound
GI50 for `O=C(Nc1cccc(Br)c1)Oc1ccc(Cl)c2cccnc12` ? 1910 nM

###

U251 glioblastoma: recorded GI50 for assorted compounds

Before answering, review these 3 worked examples.
INSERT INTO assay_data (compound, parameter, result) VALUES
  ('CN(CC(=O)N(Cc1ccc(C2CCCCC2)cc1)c1ccc(C(=O)O)c(O)c1)S(=O)(=O)c1c(F)c(F)c(F)c(F)c1F', 'GI50', '1.85 µM'),
  ('Cc1c(COc2cc(OCc3cccc(C#N)c3)c(CN3C[C@H](O)C[C@@H]3C(=O)O)cc2Cl)cccc1-c1ccc2c(c1)OCCO2', 'GI50', '3.38 µM'),
  ('CC(=O)O[C@]1(C(C)=O)CC[C@H]2[C@@H]3C=C(C)C4=CC(=O)CC[C@]4(C)[C@H]3CC[C@@]21C', 'GI50', '> 100 µM');

Give the reported GI50 for CCN(C(=O)c1cc(F)ccc1Oc1cncnc1N1CC2(CCN(CC3CCC(NS(=O)(=O)CC)CC3)CC2)C1)C(C)C (centres undefined) (system: U251 glioblastoma). > 100 µM

###

Recorded GI50 values for a group of compounds are listed next.
tested on: TK-10 renal; assay: NCI tumour cell line growth inhibition, 384-well format

Worked examples, 3 compounds total:
INSERT INTO results (compound_smiles, parameter, result) VALUES
  ('CCNC(=O)c1cc2c(-c3cc(C(C)(C)O)ccc3Oc3c(C)cc(F)cc3C)cn(C)c(=O)c2[nH]1', 'GI50', '0.366 µM'),
  ('NC(=O)c1ccc2nc(-c3ccc(Oc4ccc(Cl)cc4)cc3)[nH]c2c1', 'GI50', '23.3 µM'),
  ('CN(CC(=O)N(Cc1ccc(C2CCCCC2)cc1)c1ccc(C(=O)O)c(O)c1)S(=O)(=O)c1c(F)c(F)c(F)c(F)c1F', 'GI50', '14.5 µM');

// GI50 lookup, key: `CC(=O)O[C@]1(C(C)=O)CC[C@H]2[C@@H]3C=C(C)C4=CC(=O)CC[C@]4(C)[C@H]3CC[C@@]21C` > 100 µM

Next record, please: `O=C(Nc1cccc(Br)c1)Oc1ccc(Cl)c2cccnc12` 18.5 µM

###

test system: DU-145 prostate; assay: NCI tumour cell line growth inhibition, 384-well format
Parameter: TGI (µM)
Number in µM, nothing else.

Previously resolved entries follow.
INSERT INTO results (compound_smiles, number) VALUES
  ('Cc1c(COc2cc(OCc3cccc(C#N)c3)c(CN3C[C@H](O)C[C@@H]3C(=O)O)cc2Cl)cccc1-c1ccc2c(c1)OCCO2', 20.5),
  ('NC(=O)c1ccc2nc(-c3ccc(Oc4ccc(Cl)cc4)cc3)[nH]c2c1', 36.9),
  ('O=C(Nc1cccc(Br)c1)Oc1ccc(Cl)c2cccnc12', 19.7);

Which measured TGI value corresponds to `CCNC(=O)c1cc2c(-c3cc(C(C)(C)O)ccc3Oc3c(C)cc(F)cc3C)cn(C)c(=O)c2[nH]1` ? 14.7

`CN(CC(=O)N(Cc1ccc(C2CCCCC2)cc1)c1ccc(C(=O)O)c(O)c1)S(=O)(=O)c1c(F)c(F)c(F)c(F)c1F` , same question. 32.6

###

test system: HOP-62 NSCLC; test: NCI tumour cell line growth inhibition, 384-well format
Collected GI50 values appear next to each entry.

Known results for compounds:
INSERT INTO results (compound, result) VALUES
  ('CC(=O)O[C@]1(C(C)=O)CC[C@H]2[C@@H]3C=C(C)C4=CC(=O)CC[C@]4(C)[C@H]3CC[C@@]21C', '> 100 µM'),
  ('CN(CC(=O)N(Cc1ccc(C2CCCCC2)cc1)c1ccc(C(=O)O)c(O)c1)S(=O)(=O)c1c(F)c(F)c(F)c(F)c1F', '5.27 µM'),
  ('CCN(C(=O)c1cc(F)ccc1Oc1cncnc1N1CC2(CCN(CC3CCC(NS(=O)(=O)CC)CC3)CC2)C1)C(C)C (centres undefined)', '> 100 µM');

Here is another compound to look at.
# input compound: `O=C(Nc1cccc(Br)c1)Oc1ccc(Cl)c2cccnc12` ; wanted: its GI50 3.43 µM

###

Attribute: TGI
tested on: CCRF-CEM leukemia; assay: NCI tumour cell line growth inhibition, 384-well format
Unit µM implied. Number only.

INSERT INTO measurements (compound, parameter, number) VALUES
  ('CCNC(=O)c1cc2c(-c3cc(C(C)(C)O)ccc3Oc3c(C)cc(F)cc3C)cn(C)c(=O)c2[nH]1', 'TGI', 2.37),
  ('CCN(C(=O)c1cc(F)ccc1Oc1cncnc1N1CC2(CCN(CC3CCC(NS(=O)(=O)CC)CC3)CC2)C1)C(C)C (centres undefined)', 'TGI', 43.1),
  ('Cc1c(COc2cc(OCc3cccc(C#N)c3)c(CN3C[C@H](O)C[C@@H]3C(=O)O)cc2Cl)cccc1-c1ccc2c(c1)OCCO2', 'TGI', 3.26);

For the next question, use this compound.
Looking for the measured TGI of `NC(=O)c1ccc2nc(-c3ccc(Oc4ccc(Cl)cc4)cc3)[nH]c2c1` , can you help? 29.7

###

Listed here are molecules together with their documented GI50.
system: M14 melanoma; test: NCI tumour cell line growth inhibition, 384-well format

Examples with answers:
INSERT INTO assay_data (molecule, result) VALUES
  ('CCNC(=O)c1cc2c(-c3cc(C(C)(C)O)ccc3Oc3c(C)cc(F)cc3C)cn(C)c(=O)c2[nH]1', '1590 nM'),
  ('CCN(C(=O)c1cc(F)ccc1Oc1cncnc1N1CC2(CCN(CC3CCC(NS(=O)(=O)CC)CC3)CC2)C1)C(C)C (centres undefined)', '> 100000 nM'),
  ('CN(CC(=O)N(Cc1ccc(C2CCCCC2)cc1)c1ccc(C(=O)O)c(O)c1)S(=O)(=O)c1c(F)c(F)c(F)c(F)c1F', '2000 nM');

Continue with the molecule presented below.
Requested field: GI50. Item: `O=C(Nc1cccc(Br)c1)Oc1ccc(Cl)c2cccnc12` 2680 nM

###

system: A498 renal; assay: NCI tumour cell line growth inhibition, 384-well format
Parameter: GI50

INSERT INTO assay_data (compound_smiles, result) VALUES
  ('CN(CC(=O)N(Cc1ccc(C2CCCCC2)cc1)c1ccc(C(=O)O)c(O)c1)S(=O)(=O)c1c(F)c(F)c(F)c(F)c1F', '15.1 µM'),
  ('CCNC(=O)c1cc2c(-c3cc(C(C)(C)O)ccc3Oc3c(C)cc(F)cc3C)cn(C)c(=O)c2[nH]1', '1.87 µM');

// GI50 lookup, key: `Cc1c(COc2cc(OCc3cccc(C#N)c3)c(CN3C[C@H](O)C[C@@H]3C(=O)O)cc2Cl)cccc1-c1ccc2c(c1)OCCO2` 3.27 µM

Now consider `CC(=O)O[C@]1(C(C)=O)CC[C@H]2[C@@H]3C=C(C)C4=CC(=O)CC[C@]4(C)[C@H]3CC[C@@]21C` and answer again. > 100 µM

###

test system: HOP-62 NSCLC; test: NCI tumour cell line growth inhibition, 384-well format
Parameter: TGI (µM)
Give a bare numeral; the unit µM is implied.

The following compounds have reported results that may help.
INSERT INTO results (compound_smiles, number) VALUES
  ('CN(CC(=O)N(Cc1ccc(C2CCCCC2)cc1)c1ccc(C(=O)O)c(O)c1)S(=O)(=O)c1c(F)c(F)c(F)c(F)c1F', 16.2),
  ('NC(=O)c1ccc2nc(-c3ccc(Oc4ccc(Cl)cc4)cc3)[nH]c2c1', 33.9);

Continue with the next compound.
Query (compound): `Cc1c(COc2cc(OCc3cccc(C#N)c3)c(CN3C[C@H](O)C[C@@H]3C(=O)O)cc2Cl)cccc1-c1ccc2c(c1)OCCO2` ; field requested: TGI 15.4
